From: patent US20260317324A1

molecular target: BRAF G469A (Homo sapiens, UniProt P15056, G469A); construct: Horizon Discovery (HCT-116 BRAF−/− cells); host or cells: HCT-116 BRAF−/− cells, clone 34, lentiviral transduction; experiment: BRAF HiBiT degradation assay, C-terminal HiBiT-tagged BRAF G469A overexpressed in HCT-116 BRAF−/− cells (clone 34), Nano-Glo HiBiT Lytic assay; type: cell-based; conditions: BRAF G469A (Class 2), HCT-116 BRAF−/− cells; observed Dmax relative to DMSO control
Sequence (P15056 whole entry G469A): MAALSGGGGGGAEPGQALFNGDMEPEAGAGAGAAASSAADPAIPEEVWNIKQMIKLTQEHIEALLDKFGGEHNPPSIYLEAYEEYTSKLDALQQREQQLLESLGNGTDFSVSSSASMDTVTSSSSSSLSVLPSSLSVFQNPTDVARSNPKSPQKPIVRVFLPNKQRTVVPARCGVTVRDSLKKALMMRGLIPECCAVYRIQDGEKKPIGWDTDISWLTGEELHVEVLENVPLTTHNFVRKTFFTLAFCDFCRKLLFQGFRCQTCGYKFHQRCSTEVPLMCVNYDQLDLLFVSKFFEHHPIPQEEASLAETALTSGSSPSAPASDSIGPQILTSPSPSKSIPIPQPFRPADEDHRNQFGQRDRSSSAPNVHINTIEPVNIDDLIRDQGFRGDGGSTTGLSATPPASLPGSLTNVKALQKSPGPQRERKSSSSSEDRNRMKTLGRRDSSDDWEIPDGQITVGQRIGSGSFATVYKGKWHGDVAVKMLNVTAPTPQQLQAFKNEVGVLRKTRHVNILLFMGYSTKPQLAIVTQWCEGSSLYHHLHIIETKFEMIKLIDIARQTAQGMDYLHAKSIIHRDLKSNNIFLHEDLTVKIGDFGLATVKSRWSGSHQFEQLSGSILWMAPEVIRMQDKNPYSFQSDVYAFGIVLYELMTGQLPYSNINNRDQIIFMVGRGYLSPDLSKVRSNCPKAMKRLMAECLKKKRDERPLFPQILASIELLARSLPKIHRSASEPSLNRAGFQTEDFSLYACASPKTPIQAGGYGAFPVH
Parameter: Dmax. Scope: all listed entries.

Field: example entries. Status: answers known.
Compound: O=C1CCC(c2ccc(N3CCC(CN4CCCN(c5ccc(-n6cc(-c7cc(Cl)cc(NS(=O)(=O)N8CCCC8)c7F)c(-c7ccncc7)n6)c(F)c5)CC4)CC3)nc2)C(=O)N1 (racemic)
Reported Measurement: < 30%
//
Compound: C[C@@H]1CN(c2ccc(-n3cc(-c4cc(Cl)cc(NS(=O)(=O)N5CCCC5)c4F)c(-c4ccncc4)n3)cc2)CCN1CC1CCN(c2ccc(N3CCC(=O)NC3=O)cc2)CC1
Reported Measurement: 30 to 70%
//
Compound: CCN(C)S(=O)(=O)Nc1cc(F)cc(-c2cn(-c3ccc(N4CCN(CC5CCN(c6ccc([C@H]7CCC(=O)NC7=O)cn6)CC5)CC4)cc3)nc2-c2ccncc2)c1F
Reported Measurement: > 70%
//
Compound: CCCS(=O)(=O)Nc1cccc(-c2cn(-c3ccc(N4CCC(CN5CCN(c6ccc(C7CCC(=O)NC7=O)cc6)CC5)CC4)cc3)nc2-c2ccncc2)c1F (racemic)
Reported Measurement: 30 to 70%

Pending compound:
Give Dmax for the following compound: `O=C1CC[C@H](c2ccc(N3CCC(CN4CCN(c5ccc(-n6cc(-c7cc(C(F)F)cc(NS(=O)(=O)N8CCCC8)c7F)c(-c7ccncc7)n6)c(F)c5)CC4)CC3)cc2)C(=O)N1`
30 to 70%
